method summary: Solubility of linerixibat drug substance over pH 1.2-6.8 at 37±1° C. (Experiment 8a)
Type: physicochemical
cond: Britton Robinson buffer, 37 °C, pH 4, aqueous buffer, thermodynamic from solid, nominal pH 4.0, BR buffer, 24-hr timepoint
observation type: solubility at 24 h (µg/mL)
I only need the number, in µg/mL, no unit after it.

## Task Quick one: solubility at 24 h for CCCC[C@]1(CC)CS(=O)(=O)c2cc(CNC(CC(=O)O)CC(=O)O)c(OC)cc2[C@@H](c2ccccc2)N1 [Form I] ?
## Result 146

###

method summary: Solubility of linerixibat drug substance over pH 1.2-6.8 at 37±1° C. (Experiment 8a)
Assay type: physicochemical
cond: Britton Robinson buffer, 37 °C, pH 3.8, aqueous buffer, thermodynamic from solid, nominal pH 3.8, BR buffer, 1-hr timepoint
observation type: solubility at 1 h
Give the value; after it, write the unit.

## Task Quick one: solubility at 1 h for CCCC[C@]1(CC)CS(=O)(=O)c2cc(CNC(CC(=O)O)CC(=O)O)c(OC)cc2[C@@H](c2ccccc2)N1 [Form I] ?
## Result 104 µg/mL
